# TESTED TARGET: human TLR8 (Homo sapiens)
# Sequence (Q9NR97 27-1041): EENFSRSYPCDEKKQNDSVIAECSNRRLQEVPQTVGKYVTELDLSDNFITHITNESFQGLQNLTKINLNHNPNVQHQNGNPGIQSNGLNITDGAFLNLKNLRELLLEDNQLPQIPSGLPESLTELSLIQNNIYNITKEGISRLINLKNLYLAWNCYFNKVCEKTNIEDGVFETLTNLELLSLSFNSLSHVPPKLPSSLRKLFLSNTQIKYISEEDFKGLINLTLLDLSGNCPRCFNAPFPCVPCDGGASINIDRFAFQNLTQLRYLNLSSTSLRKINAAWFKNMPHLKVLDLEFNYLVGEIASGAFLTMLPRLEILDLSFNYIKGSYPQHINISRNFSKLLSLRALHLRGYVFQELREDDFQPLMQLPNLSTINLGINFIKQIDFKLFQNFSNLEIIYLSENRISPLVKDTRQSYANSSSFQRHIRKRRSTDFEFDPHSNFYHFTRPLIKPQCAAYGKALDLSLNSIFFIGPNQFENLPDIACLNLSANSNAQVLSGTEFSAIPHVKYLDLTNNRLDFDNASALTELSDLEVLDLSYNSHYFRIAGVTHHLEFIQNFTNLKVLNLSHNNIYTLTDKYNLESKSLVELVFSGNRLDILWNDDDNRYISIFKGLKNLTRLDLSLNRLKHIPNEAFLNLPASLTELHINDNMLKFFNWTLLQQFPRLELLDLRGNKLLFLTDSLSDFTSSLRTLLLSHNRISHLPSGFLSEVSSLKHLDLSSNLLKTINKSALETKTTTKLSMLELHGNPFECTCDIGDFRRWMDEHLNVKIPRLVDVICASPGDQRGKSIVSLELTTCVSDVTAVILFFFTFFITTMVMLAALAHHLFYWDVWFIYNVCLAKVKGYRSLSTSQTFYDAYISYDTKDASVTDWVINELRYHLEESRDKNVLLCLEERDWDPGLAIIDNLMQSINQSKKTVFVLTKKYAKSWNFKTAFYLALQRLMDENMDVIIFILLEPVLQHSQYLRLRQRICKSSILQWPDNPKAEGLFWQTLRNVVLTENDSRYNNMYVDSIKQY
# ASSAY PROTOCOL: TLR8 inhibition reporter assay (HEK-Blue SEAP)
# CONDITION SUMMARY: HEK-Blue cells overexpressing human TLR8, R848 15.9 μM, 22 hour incubation
# Text: TLR7/8/9 Inhibition Reporter Assays HEK-Blue™-cells (Invivogen) overexpressing human TLR7, TLR8 or TLR9 receptors were used for screening inhibitors of these receptors using an inducible SEAP (secreted embryonic alkaline phosphatase) reporter gene under the control of the IFN-β minimal promoter fused to five NF-κB and AP-1-binding sites. […]
VALUE KIND: pIC50
The value called pIC50 is obtained by taking minus log10 of the concentration in mol/L.

COc1cc(-c2cc3[nH]c(=O)n([C@@H]4CCCN(C5CCC5)C4)c3cc2C)cn2ncnc12 : 6.96
COc1cc(-c2cc3[nH]c(=O)n([C@H]4CC[C@H](NCC(C)C)CC4)c3cc2C(C)C)cn2ncnc12 : 8.91
COc1cc(-c2cc3[nH]c(=O)n(C4CCC(N5CCNC(=O)C5)CC4)c3cc2C(C)C)cn2ncnc12 (centres unmarked) [Example 243] : 7.09
COc1cc(-c2cc3[nH]c(=O)n([C@@H]4CCCN(C5COC5)C4)c3cc2C(F)(F)F)cn2ncnc12 : 6.95

Please examine the following record next.
IN: Look up pIC50 for this compound: CCC(CC)CN1CCC[C@@H](n2c(=O)[nH]c3cc(-c4cn5ncnc5c(C)c4C)c(C(C)C)cc32)C1
OUT: 7.66

###

# TESTED TARGET: human TLR9 (Homo sapiens, UniProt Q9NR96)
# Sequence (Q9NR96 26-1032): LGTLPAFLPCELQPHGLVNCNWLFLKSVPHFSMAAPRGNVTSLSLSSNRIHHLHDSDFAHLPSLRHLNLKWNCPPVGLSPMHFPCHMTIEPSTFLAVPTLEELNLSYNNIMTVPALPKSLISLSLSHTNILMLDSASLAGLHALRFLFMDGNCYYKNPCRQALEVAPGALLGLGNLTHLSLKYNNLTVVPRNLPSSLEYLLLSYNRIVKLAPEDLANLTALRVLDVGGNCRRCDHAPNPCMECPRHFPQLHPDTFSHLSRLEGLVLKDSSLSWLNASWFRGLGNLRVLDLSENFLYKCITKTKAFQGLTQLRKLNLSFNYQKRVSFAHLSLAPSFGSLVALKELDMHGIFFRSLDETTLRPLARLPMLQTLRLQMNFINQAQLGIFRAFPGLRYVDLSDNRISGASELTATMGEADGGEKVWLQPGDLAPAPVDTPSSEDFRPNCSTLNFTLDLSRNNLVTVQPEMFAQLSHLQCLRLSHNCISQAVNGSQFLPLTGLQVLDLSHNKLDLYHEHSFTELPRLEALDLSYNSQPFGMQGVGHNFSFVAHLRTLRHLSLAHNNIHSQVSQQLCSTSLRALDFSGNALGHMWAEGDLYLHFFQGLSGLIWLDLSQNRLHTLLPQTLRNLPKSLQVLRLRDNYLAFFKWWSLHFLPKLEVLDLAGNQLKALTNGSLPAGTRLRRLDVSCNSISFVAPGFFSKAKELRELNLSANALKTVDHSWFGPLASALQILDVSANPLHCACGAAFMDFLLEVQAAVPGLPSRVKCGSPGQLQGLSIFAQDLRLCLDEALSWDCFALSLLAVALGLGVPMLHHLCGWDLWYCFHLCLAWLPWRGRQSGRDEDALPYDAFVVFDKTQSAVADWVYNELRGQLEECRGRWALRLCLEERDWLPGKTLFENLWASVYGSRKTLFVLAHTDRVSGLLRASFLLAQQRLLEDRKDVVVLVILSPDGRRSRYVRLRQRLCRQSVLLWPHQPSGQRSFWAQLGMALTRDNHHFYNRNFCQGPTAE
# ASSAY PROTOCOL: TLR9 inhibition reporter assay (HEK-Blue SEAP)
# CONDITION SUMMARY: HEK-Blue cells overexpressing human TLR9, ODN2006 5 nM, 22 hour incubation
# From the text: TLR7/8/9 Inhibition Reporter Assays HEK-Blue™-cells (Invivogen) overexpressing human TLR7, TLR8 or TLR9 receptors were used for screening inhibitors of these receptors using an inducible SEAP (secreted embryonic alkaline phosphatase) reporter gene under the control of the IFN-β minimal promoter fused to five NF-κB and AP-1-binding sites. […]
Lab note: compare IC50 with 8 µM, writing Criterion met if less and Criterion not met if equal or more.

See these solved cases before continuing.
Cc1cc2c(cc1-c1cc(C)c3ncnn3c1)[nH]c(=O)n2[C@H]1CC[C@@H](N)CC1 : Criterion met
COc1cc(-c2cc3[nH]c(=O)n([C@H]4CC[C@H](NCC(C)C)CC4)c3cc2C(C)C)cn2ncnc12 : Criterion not met
CCC(CC)CN1CCC[C@H](n2c(=O)[nH]c3cc(-c4cc(OC)c5ncnn5c4)c(C(C)C)cc32)C1 : Criterion not met
Cc1cc2c(cc1-c1cc(C)c3ncnn3c1)[nH]c(=O)n2[C@@H]1CCCN(CCC(C)C)C1 : Criterion met
COc1cc(-c2cc3[nH]c(=O)n(C4CCC(N5CCC(F)(F)C5)CC4)c3cc2C(C)C)cn2ncnc12 (single isomer, unassigned) [Example 295] : Criterion not met
COc1cc(-c2cc3[nH]c(=O)n([C@@H]4CCCN(C)C4)c3cc2C)cn2ncnc12 : Criterion not met
COc1cc(-c2cc3[nH]c(=O)n(C4CCC(N5CCNC(=O)C5)CC4)c3cc2C(C)C)cn2ncnc12 (single isomer, unassigned) [Example 234] : Criterion not met
COc1cc(-c2cc3[nH]c(=O)n([C@@H]4CCCN(CC5CC5)C4)c3cc2C(C)C)cn2ncnc12 : Criterion met
COc1cc(-c2cc3[nH]c(=O)n([C@H]4CC[C@H](N(CC5CC5)CC5CC5)CC4)c3cc2C(C)C)cn2ncnc12 : Criterion met
CCCN1CCC[C@@H](n2c(=O)[nH]c3cc(-c4cc(OC)c5ncnn5c4)c(CC)cc32)C1 : Criterion met

Could you now consider this next molecule?
IN: Regarding Cc1cc2c(cc1-c1cc(C)c3ncnn3c1)[nH]c(=O)n2[C@@H]1CCCN(CCC(C)(C)C)C1 , kindly confirm whether its IC50 is beneath 8 µM.
OUT: Criterion met

Entry source: patent US12187723B2
